// reported pIC50 for each item listed
Molecular target: complement C5a receptor 1 (C5aR1) (Homo sapiens, UniProt P21730)
Construct: β-galactosidase fragment (PathHunter enzyme complementation); host or cells: CHO-K1 (PathHunter CHO-K1 C5aR1 β-arrestin cell line)
Sequence (P21730 1-350): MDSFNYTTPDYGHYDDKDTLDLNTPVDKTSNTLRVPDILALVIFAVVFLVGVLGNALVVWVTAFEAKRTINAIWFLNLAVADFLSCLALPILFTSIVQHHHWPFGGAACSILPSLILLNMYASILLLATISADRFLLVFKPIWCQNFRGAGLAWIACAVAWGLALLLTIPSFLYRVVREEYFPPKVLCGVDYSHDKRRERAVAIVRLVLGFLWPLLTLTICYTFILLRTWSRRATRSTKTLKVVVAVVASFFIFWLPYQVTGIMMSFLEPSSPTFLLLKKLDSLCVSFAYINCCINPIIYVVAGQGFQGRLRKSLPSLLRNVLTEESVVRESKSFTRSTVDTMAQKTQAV
Assay: β-arrestin recruitment via C5aR1 activation in live CHO-K1 cells (PathHunter), antagonist mode
Assay type: cell-based
Conditions: antagonist mode; recombinant hC5a (EC90) as competing natural agonist; live CHO-K1 cells; read-out: [Antagonist] B-arrestin2 recruitment: Average IC50
pIC50: −log10 of the molar value.

Q. Request body: readout pIC50, system complement C5a receptor 1 (C5aR1) (Homo sapiens, UniProt P21730), query Cc1cccc(F)c1N1CCC(c2cc3nccnc3n(Cc3ccc(C(F)(F)F)cn3)c2=O)CC1 [compound 15] . Return the value.
A. < 4.00

Q. Request body: readout pIC50, system complement C5a receptor 1 (C5aR1) (Homo sapiens, UniProt P21730), query Cc1cnc2cc([C@@H]3CC[C@H](c4c(C)cccc4F)C3)c(=O)n(Cc3nccnc3C)c2n1 [172B] . Return the value.
A. 5.30 to 6.30

Q. Request body: readout pIC50, system complement C5a receptor 1 (C5aR1) (Homo sapiens, UniProt P21730), query Cc1ccc2cc([C@H]3CC[C@H](c4cnccc4C(F)(F)F)CC3)c(=O)n(Cc3ncccc3C(C)(F)F)c2n1 [compound 254] . Return the value.
A. > 6.30
